system: human CaSR (Homo sapiens, UniProt P41180, E1011Q)
Sequence (P41180 20-1078 E1011Q): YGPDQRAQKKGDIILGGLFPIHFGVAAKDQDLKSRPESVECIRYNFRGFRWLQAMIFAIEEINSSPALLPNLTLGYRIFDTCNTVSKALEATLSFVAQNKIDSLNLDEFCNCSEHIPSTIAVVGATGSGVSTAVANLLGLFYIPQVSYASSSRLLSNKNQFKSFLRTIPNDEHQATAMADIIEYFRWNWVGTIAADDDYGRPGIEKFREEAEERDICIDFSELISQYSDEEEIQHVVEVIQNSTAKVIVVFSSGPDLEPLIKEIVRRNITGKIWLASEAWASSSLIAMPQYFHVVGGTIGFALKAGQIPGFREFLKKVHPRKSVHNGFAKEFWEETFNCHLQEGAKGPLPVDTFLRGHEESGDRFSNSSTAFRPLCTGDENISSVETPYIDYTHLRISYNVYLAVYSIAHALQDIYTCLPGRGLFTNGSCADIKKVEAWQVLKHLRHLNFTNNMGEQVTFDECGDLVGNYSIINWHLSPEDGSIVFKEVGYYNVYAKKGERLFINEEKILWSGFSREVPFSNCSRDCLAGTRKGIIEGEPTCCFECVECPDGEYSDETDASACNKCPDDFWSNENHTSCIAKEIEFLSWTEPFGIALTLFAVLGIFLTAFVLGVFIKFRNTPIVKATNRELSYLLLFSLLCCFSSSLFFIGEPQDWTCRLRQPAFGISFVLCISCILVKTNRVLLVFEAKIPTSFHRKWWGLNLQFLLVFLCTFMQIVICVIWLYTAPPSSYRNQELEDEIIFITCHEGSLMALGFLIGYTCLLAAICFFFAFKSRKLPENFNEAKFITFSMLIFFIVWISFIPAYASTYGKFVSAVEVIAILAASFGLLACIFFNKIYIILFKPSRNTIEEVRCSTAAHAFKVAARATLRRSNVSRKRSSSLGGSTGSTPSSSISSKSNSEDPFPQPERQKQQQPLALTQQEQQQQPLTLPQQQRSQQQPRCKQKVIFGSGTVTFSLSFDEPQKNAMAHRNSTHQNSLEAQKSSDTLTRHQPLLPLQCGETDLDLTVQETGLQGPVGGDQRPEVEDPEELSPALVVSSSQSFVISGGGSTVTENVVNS
experimental-details: Evaluation of CaSR agonistic activity (293E cells transfected with hCaSR, Ca2+ fluorescent indicator, FLIPR)
run-parameters: 293E cells expressing human CaSR; concentration giving activation rate 50%
recorded-endpoint: EC50 (nM)

Example entries and their recorded answers appear below.
>  <smiles-code>
N[C@@H](CCC(=O)Nc1ccc(Cl)c(S(=O)(=O)O)c1)C(=O)O

>  <unit-info>
nM

>  <EC50>
270

$$$$
>  <smiles-code>
Cc1c(Cl)cc(S(=O)(=O)O)cc1NC(=O)OC[C@H](N)C(=O)O

>  <unit-info>
nM

>  <EC50>
3.7

$$$$

[P] N[C@@H](CCC(=O)Nc1cc(I)ccc1S(=O)(=O)O)C(=O)O
[Q] N[C@@H](CCC(=O)Nc1cc(S(=O)(=O)O)ccc1O)C(=O)O
Q. For this pair, P and Q , which shows a numerically higher EC50? Identify your selection by its label.
A. P
(P: 2300 nM, Q: 100 nM)

---

system: human CaSR (Homo sapiens, UniProt P41180, E1011Q)
experimental-details: Evaluation of CaSR agonistic activity (293E cells transfected with hCaSR, Ca2+ fluorescent indicator, FLIPR)
run-parameters: 293E cells expressing human CaSR; concentration giving activation rate 50%
recorded-endpoint: EC50 (µM)

// solved cases for EC50 follow
>  <compound>
COc1ccc(NC(=O)CC[C@H](N)C(=O)O)cc1S(=O)(=O)O [Compound No. 2]

>  <result>
2.3

$$$$
>  <compound>
Cc1ccc(C(=O)O)cc1NC(=O)CC[C@H](N)C(=O)O [Compound No. 29]

>  <result>
0.53

$$$$
>  <compound>
N[C@@H](CCC(=O)Nc1cc(Cl)cc(S(=O)(=O)O)c1O)C(=O)O [Compound No. 7]

>  <result>
0.0019

$$$$

[1] N[C@@H](CCC(=O)Nc1cccc(P(=O)(O)O)c1)C(=O)O [Compound No. 18, N^5-(3-phosphonophenyl)-L-glutamine]
[2] N[C@@H](CCC(=O)Nc1cc(O)cc(C(=O)O)c1)C(=O)O [Compound No. 30]
Q. I would appreciate it if you could say which entry, 1 or 2 , has the lower EC50 value. The response must carry the label of the picked entry.
A. 1
(1: 0.53 µM, 2: 2.9 µM)

[1] N[C@@H](CCC(=O)Nc1cccc(C(=O)O)c1O)C(=O)O [Compound No. 15]
[2] N[C@@H](CCC(=O)Nc1cc(S(=O)(=O)O)cc([N+](=O)[O-])c1O)C(=O)O [Compound No. 6]
Q. Could you please tell me which of these two has the higher EC50: 1 or 2 ? Mark your answer with the label of the selected entry.
A. 2

[I] N[C@@H](CCC(=O)Nc1cc(Br)cc(C(=O)O)c1)C(=O)O [Compound No. 16]
[II] N[C@@H](CCC(=O)Nc1cccc([N+](=O)[O-])c1)C(=O)O [Compound No. 19, N^5-(3-nitrophenyl)-L-glutamine]
[III] N[C@@H](CCC(=O)Nc1cc(Cl)cc(C(=O)O)c1Cl)C(=O)O [Compound No. 24]
Q. # ascending order, key=EC50 List labels; respect the requested ordering.
A. III, I, II

---

system: human CaSR (Homo sapiens, UniProt P41180, E1011Q)
experimental-details: Evaluation of CaSR agonistic activity (293E cells transfected with hCaSR, Ca2+ fluorescent indicator, FLIPR)
run-parameters: 293E cells expressing human CaSR; concentration giving activation rate 50%
pEC50: −log10 of the molar value.
recorded-endpoint: pEC50

>  <smiles-code>
N[C@@H](CCC(=O)Nc1cccc(C(=O)O)c1Cl)C(=O)O

>  <pEC50>
6.01

$$$$
>  <smiles-code>
Cc1cc(C)c(S(=O)(=O)O)cc1NC(=O)CC[C@H](N)C(=O)O

>  <pEC50>
7.23

$$$$

[1] N[C@@H](CCC(=O)Nc1cc(Cl)cc(C(=O)O)c1)C(=O)O
[2] N[C@@H](CCC(=O)Nc1cc(C(=O)O)ccc1Cl)C(=O)O
Q. Between item 1 and item 2 , which reported pEC50 is smaller? State the label of the item chosen.
A. 2
